Cited source for all entries: PubChem BioAssay (NCI)

system: DLD-1 colon; experiment: NCI tumour cell line growth inhibition, 48 h
endpoint-name: TGI

query: Name the reported TGI value associated with the molecule `CC1=C2C(=O)C(C)(C)C=C2C(=O)[C@](C)(O)C12CC2`
result: > 1 µM

query: Name the reported TGI value associated with the molecule `CCN(CC)C(=O)CNC(=O)OC(C)(C)C`
result: > 100 µM

query: Name the reported TGI value associated with the molecule C[C@]12CC(C#N)C(=O)C(O)=C1CC[C@@H]1C2CC[C@@]2(C)C1CC[C@@H]2O (stereo partly specified)
result: > 100 µM

query: Name the reported TGI value associated with the molecule CC(Oc1ccc(OCC2CCCCC2)cc1)C(=O)O (stereo unspecified)
result: > 100 µM

query: Name the reported TGI value associated with the molecule COc1cc([C@@H]2c3cc4c(cc3[C@@H](NCc3ccc(C#N)cc3)C3COC(=O)[C@@H]32)OCO4)cc(OC)c1O (stereo partly specified)
result: 5.33 µM

query: Name the reported TGI value associated with the molecule `O=C1NC(=O)C(=O)C(c2nc3ccccc3s2)C1=O`
result: > 100 µM

query: Name the reported TGI value associated with the molecule CC(C(=O)c1ccccc1)C1(O)C(=O)Nc2ccccc21 (stereo unspecified)
result: > 100 µM

query: Name the reported TGI value associated with the molecule N#CC(C(=O)CCC(=O)Nc1ccc(Cl)cc1)c1ccccc1Cl (stereo unspecified)
result: > 100 µM

query: Name the reported TGI value associated with the molecule O=C(COc1ccc(Cl)cc1)N1N=C(c2ccc([N+](=O)[O-])o2)CC1(O)c1ccccc1 (stereo unspecified)
result: > 100 µM

query: Name the reported TGI value associated with the molecule `NNC(=O)CCC(=O)Nc1ccc(Cl)cc1Cl`
result: > 100 µM

query: Name the reported TGI value associated with the molecule `S=P(c1ccccc1)(c1ccccc1)C1(C2(P(=S)(c3ccccc3)c3ccccc3)CC2)CC1`
result: > 100 µM
